Tested on: HL60
experimental_protocol: area under dose-response curve (cell viability) (AUC (arbitrary, % viability x log concentration)); higher = less sensitive (more viable)
condition_label: 4 days
Item-by-item account of area under dose-response curve
assay_endpoint: area under dose-response curve

mol_smiles	assay_endpoint	reported_measurement
CO[C@H]1C[C@@H]2CC[C@@H](C)[C@@](O)(O2)C(=O)C(=O)N2CCCC[C@H]2C(=O)O[C@H]([C@H](C)C[C@@H]2CC[C@@H](O)[C@H](OC)C2)CC(=O)[C@H](C)/C=C(\C)[C@@H](O)[C@@H](OC)C(=O)[C@H](C)C[C@H](C)/C=C/C=C/C=C/1C	area under dose-response curve	544
CC(C)(C)c1ccc(S(=O)(=O)/C=C/C#N)cc1	area under dose-response curve	443
COc1cc2/c(=N/c3ccc(Br)cc3F)nc[nH]c2cc1OCC1CCN(C)CC1	area under dose-response curve	675
